Tested on: PPARg DBDmut IVT, anti-PPARg (DBD mutation: PPARg1 K132A/R137A, NR concentration 270 nM)
Assay: PBM binding z-score (relative to random genomic background probes); higher = stronger binding; sequences stand for … in GC…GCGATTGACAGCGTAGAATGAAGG
Answer each item with its documented PBM binding z-score.
Just the number, please, no unit after it.

Query (sequence): `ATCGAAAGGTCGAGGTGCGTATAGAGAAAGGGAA` ; field requested: PBM binding z-score 0.0547

Then `CGTCAAAGTTCAACTAAGCTAACGTAAAGCACGC` ? 1.29

Then `CCGACTGGGGCAAAGGTTATCATACTCAGTACGA` ? 0.138

Then `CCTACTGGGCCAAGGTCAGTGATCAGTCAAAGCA` ? -1.43

Then `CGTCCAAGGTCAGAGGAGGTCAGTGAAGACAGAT` ? -0.477

Then `GTACCAAGGTGAATAGGTCGTTGCTGAGTAGGCG` ? 0.00615

Then `TCATATAGCTAAATGCTAGGTGAAAGTCCGATCT` ? 0.932

Then `TCTATTAGTTGATTAGGGCACCCGAAACAGCGGA` ? 1.2

Then `CAAACCAGGTCAAGGTCAAAGTCGGTTTGTGCCA` ? 2.41

Then `CCGACTGGGGCACAGGTTACCATACTCAGTACGA` ? -0.501

Then `GCTAGCAGTCCATTTGGGTCACTCAATGACGGGC` ? -1.53

Then `CAAACTAGGTCACCGGAAGGTCAAAGTCCGCATG` ? 2.01

Then `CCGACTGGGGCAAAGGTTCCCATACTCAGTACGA` ? -0.816

Then `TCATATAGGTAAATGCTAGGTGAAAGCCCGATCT` ? 0.941

Then `TTACAAAGGTGAAGGTCGTTGATCCCTCTGTAGA` ? 0.134

Then `CAAACTAAGTCAAGAGGTCAAAGTCCGCTTCCCG` ? 0.834

Then `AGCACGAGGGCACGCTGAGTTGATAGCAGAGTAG` ? -0.669

Then `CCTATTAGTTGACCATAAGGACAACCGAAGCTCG` ? 1.03

Then `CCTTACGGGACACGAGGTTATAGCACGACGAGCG` ? 0.413

Then `CAAACTAGGTCAAGGTCAAAGGCGGTTTGTGCCA` ? 1.08

Then `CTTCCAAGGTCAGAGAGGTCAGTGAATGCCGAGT` ? 0.0425

Then `CTACCGAGGTGAACAAGGTCGTTGATTACTATTC` ? 0.329

Then `ATATATAGGTTAAGGGTCATTCAGGTTGGTTCGC` ? 2.9

Then `AGTCTAAGTTCATCTAGGTAACGTAAGATATGCT` ? 1.39

Then `CAAACTAGGTTAAGGTCAAAGTCGGTTTGTGCCA` ? 3.72

Then `GCTCGGACGACAAGGTCAGAGCTTTGTCCGTAGA` ? -1.46

Then `CGTCCAAGCTCAAGGTCAGTGAAAGAGACTCGAA` ? -0.496

Then `AGAACGAGGGCAATGAGTTGAAAGCACGGGTGGC` ? -0.78

Then `CGTCCAAGGTCAATGCTAGGGCAGTGAAAGCATT` ? -0.81

Then `TGAAAGAGGTTAAAGATCAGGGAACGTGGCGTCG` ? -0.385

Then `ATATGTAGGTTATCGGCTCATTCAGTTTGCGCAT` ? 1.66

Then `TTACCAAGTTGAGCTGAGGTCGTTGATCCAACTC` ? -0.114

Then `TGAATGAGGTTATAAAATCAGGGAACGTTGCAAA` ? 0.504

Then `CGTCCAAGCTCAGAGAGGTCAGTGAATGCCGAGT` ? -1.03

Then `CGAGCTAGGTCATCCAGGACAGTGAATACATTGA` ? -0.51

Then `CGTACTAGGTCAAGGACAGTGAATCTCCGCACGC` ? 1.3

Then `ATATGTACGTTAAGGGTCATTCAGGTTGGTTCGC` ? 3.29

Then `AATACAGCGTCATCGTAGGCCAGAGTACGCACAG` ? -0.309

Then `AACACAGGGTCATCGTAGGCCAGAGTACGCACAG` ? 0.514

Then `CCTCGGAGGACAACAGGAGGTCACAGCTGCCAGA` ? -1.12

Then `CCTCGGAGGACAGAAGGTGAGAGCTGTCCGCTTT` ? -1.59

Then `CCGACTGGGGCAAGGTGACCATAACGCACAGCCA` ? -0.812

Then `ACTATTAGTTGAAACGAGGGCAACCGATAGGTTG` ? 0.692

Then `TTTTGTAGATCAACAGGAGGTTAAGAAAGATCGA` ? 1.43
